test system: lymphocytes (fresh spleen cells); test: Lymphocyte proliferation assay (ConA-induced spleen cells); assay type: cell-based, rat; conditions: lymphocyte proliferation induced with 5 μg/mL ConA, 48 hours; test concentration not given
Collected Inhibition rate (%) values appear next to each entry.
# include the unit after the value

Here is how some molecules turned out for Inhibition rate (%).
CC(C)=CCC/C(C)=C/COC(=O)c1csc(C(=O)c2c[nH]c3ccccc23)n1; 57.51%
O=C(OCc1cn(CC23CC4CC(CC(C4)C2)C3)nn1)c1csc(C(=O)c2c[nH]c3ccccc23)n1; 59.01%
CC1CCC2(OC1)OC1CC3C4CC=C5CC(NC(=O)c6csc(C(=O)c7c[nH]c8ccccc78)n6)CCC5(C)C4CCC3(C)C1C2C (stereo not drawn); 23.57%
COC(=O)c1csc(C(=O)c2c[nH]c3ccccc23)n1 [ITE, reference compound]; 57.96%

Task: Dear colleague, I am looking for the recorded Inhibition rate (%) of the following molecule: Cc1cnc2c(-c3nc(C(=O)NCCc4ccccn4)cs3)cnn2c1
Output: 37.24%

Task: Please answer likewise for C#COC(=O)c1csc(C(=O)c2c[nH]c3ccccc23)n1
Output: 47.15%

Task: Follow-up entry: CC(C)=CCOC(=O)c1csc(-c2cnn3cccnc23)n1
Output: 28.23%

Task: Now try O=C(c1csc(-c2cnn3cccnc23)n1)N1CCC[C@H]1c1ccccc1 .
Output: 58.26%

Task: Try this molecule next: O=C(NCCc1cccnc1)c1csc(-c2cnn3cccnc23)n1
Output: 83.63%

---

test: Pharmacokinetics and oral bioavailability in Wistar rats; assay type: in vivo; settings: male, Wistar, plasma, oral; rat, intragastric 5 mg/kg vs intravenous 1 mg/kg; read-out: relative oral bioavailability
experimental endpoint: bioavailability (%)
Please give a number only; it is taken to be in %.

Task: What value of measured bioavailability is listed for O=C(NCc1cccnc1)c1csc(-c2cnn3cccnc23)n1 ?
Output: 22.1

---

Assay: Pharmacokinetics and oral bioavailability in Wistar rats
Format: in vivo
Details: male, Wistar, plasma, iv; rat, single injection 1 mg/kg
Experimental: To prepare the standard series solution, a suitable amount of compound IA-3 was accurately weighed and placed in a 100 mL volumetric flask. The compound was dissolved in acetonitrile and diluted to the mark to produce a 25.0 μg/mL stock solution. […] Sample determination and data processing: the rat plasma samples were processed according to the “Preparation of plasma samples” procedure and analyzed under the conditions described above. […]
experimental endpoint: half-life (min)
Entry rule: numbers only, all in min.

Task: Would you kindly share the measured half-life for O=C(NCc1cccnc1)c1csc(-c2cnn3cccnc23)n1 [IA-3] ?
Output: 21.6

---

assay: Pharmacokinetics and oral bioavailability in Wistar rats; type: in vivo; conditions: male, Wistar, plasma, iv; rat, single injection 1 mg/kg
experimental endpoint: MRT (min)
The reply should contain only the number, in min.

Task: Can you look up the measured MRT of O=C(NCc1cccnc1)c1csc(-c2cnn3cccnc23)n1 for me?
Output: 30.4

---

test system: lymphocytes (fresh spleen cells); test: Lymphocyte proliferation assay (ConA-induced spleen cells); assay type: cell-based, rat; settings: lymphocyte proliferation induced with 5 μg/mL ConA, 48 hours; test concentration not given
Label condition met when Inhibition rate (%) < 50%; otherwise condition not met.

The examples below pair each entry with its known result.
O=C(OCc1cn(CCCCCCBr)nn1)c1csc(C(=O)c2c[nH]c3ccccc23)n1; condition met
O=C(NCCc1ccncc1)c1csc(C(=O)c2c[nH]c3ccccc23)n1; condition met
O=C(c1nc(C(=O)N2CCCC2c2cc(F)ncc2F)cs1)c1c[nH]c2ccccc12 (stereo not drawn); condition not met
O=C(Nc1cccnc1)c1csc(C(=O)c2c[nH]c3ccccc23)n1; condition not met
O=C(c1nc(C(=O)N2CCC[C@H]2c2ccncc2)cs1)c1c[nH]c2ccccc12; condition not met

Task: Does the reported Inhibition rate (%) of O=C(NCC(O)C(F)(F)F)c1csc(-c2cnn3cccnc23)n1 (stereo not drawn) stay below 50%?
Output: condition met

Task: // query: O=C(NCc1cccnc1)c1csc(-c2cnn3cccnc23)n1
Output: condition not met
